tested on: CD2F1 mice, L1210 leukemia ip, survival T/C; test: NCI In Vivo Anticancer Drug Screen. Data for tumor model L1210 Leukemia (intraperitoneal) in CD2F1 (CDF1) mice; conditions: endpoint: mean survival time; dose: 400.0 mg/kg/injection; schedule: Q01DX009 (ip); vehicle: saline with Tween-80; higher = longer survival
Inconclusive results and toxic doses are left out.
Collected T/C values appear next to each entry.

Previously resolved entries follow.
Molecule	Observed property	Measured
O=C(O)CC1CCC(CC(=O)O)CC1 (stereo unspecified)	T/C	101 % of control
O=C(NC(Cc1c[nH]c2ccccc12)C(=O)O)c1ccccc1 (stereo unspecified)	T/C	104 % of control
CC(=O)C1C(=O)CC(C)(O)C(C(C)=O)C1c1ccccc1 (stereo unspecified)	T/C	94 % of control
Nc1nc(N)c(N=Nc2ccc(S(=O)(=O)O)cc2)c(N)n1	T/C	98 % of control
N#CC(CN1CCOCC1)[N+](=O)[O-] (stereo unspecified)	T/C	118 % of control

Okay, now this molecule:
GET /values?readout=T/C&item= OC(c1ccccc1)c1nc2ccccc2[nH]1 (stereo unspecified)
96 % of control
